Target: Fyn SH2 variant V3 (T3S/T4W/A5G), His-tag protein (human)
Assay: ELISA
Square brackets hold non-standard residues; d marks the D form. Ends that are not written are not given here. * marks the point of attachment. Biotin = O=C1N[C@H]2[C@H](CS[C@H]2CCCCC(=O)*)N1; pY = N[C@@H](Cc1ccc(OP(=O)(O)O)cc1)C(=O)O; Ahx = NCCCCCC(=O)O
measured_quantity: EC50 (nM)
Answer in nM, number only, no unit symbol.

[ask] Given {Biotin-Ahx-Ahx}-EPQ[pY]EEIPIYL [biotin-ahx-ahx-EPQpYEEIPIYL] , state its recorded EC50.
[reply] 15
